species on record: Mus musculus; test: Selectivity ratio of Ki for mouse delta opioid receptor to mouse mu receptor
Readings of Ratio Ki for the listed compounds

Query block: What value of Ratio Ki has been reported for the following compound? Oc1ccc2c3c1O[C@H]1[C@]4(CC[C@@]5(O)[C@@H](C2)N(CC2CC2)CC[C@]315)O[C@H]1CO[C@@H]2N1[C@H]4O[C@]21CC[C@@]2(O)[C@H]3Cc4ccc(O)c5c4[C@@]2(CCN3CC2CC2)[C@H]1O5
Result block: 33.6

Query block: Please give the measured Ratio Ki for this compound: Oc1ccc2c3c1O[C@@H]1[C@]34CCN(CC3CC3)[C@H](C2)[C@]4(O)CC[C@@]12C=N[C@H]([C@]1(O)CC[C@@]3(O)[C@H]4Cc5ccc(O)c6c5[C@@]3(CCN4CC3CC3)[C@H]1O6)O2
Result block: 28.3

Query block: So what does the record say about Ratio Ki for Oc1ccc2c3c1O[C@H]1[C@]4(CC[C@H]5[C@@H](C2)N(CC2CC2)CC[C@@]351)O[C@H]1CO[C@@H]2N1[C@H]4O[C@]21CC[C@H]2[C@H]3Cc4ccc(O)c5c4[C@@]2(CCN3CC2CC2)[C@H]1O5 ?
Result block: 10.8

###

target: Delta-type opioid receptor (Mus musculus); experiment: Displacement of [3H]DPDPE from mouse delta opioid receptor in whole brain without cerebellum
Sequence (P32300 whole entry): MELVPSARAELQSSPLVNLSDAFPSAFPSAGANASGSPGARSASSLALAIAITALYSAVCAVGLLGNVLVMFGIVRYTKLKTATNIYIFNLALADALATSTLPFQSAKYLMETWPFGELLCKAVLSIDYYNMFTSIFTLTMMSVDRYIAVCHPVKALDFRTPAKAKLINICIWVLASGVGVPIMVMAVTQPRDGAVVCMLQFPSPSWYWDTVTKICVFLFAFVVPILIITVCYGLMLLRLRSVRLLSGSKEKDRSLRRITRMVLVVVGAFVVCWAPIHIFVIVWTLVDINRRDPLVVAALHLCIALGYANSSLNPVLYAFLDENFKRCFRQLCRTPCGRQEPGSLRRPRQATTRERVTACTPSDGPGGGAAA
QUANTITY_MEASURED: Ki

For orientation, consider the following solved cases.
>>> recorded_measurement("Oc1ccc2c3c1O[C@H]1[C@]4(CC[C@@]5(O)[C@@H](C2)N(CC2CC2)CC[C@]315)O[C@H]1CO[C@@H]2N1[C@H]4O[C@]21CC[C@@]2(O)[C@H]3Cc4ccc(O)c5c4[C@@]2(CCN3CC2CC2)[C@H]1O5")
"16.2 nM"
>>> recorded_measurement("Oc1ccc2c3c1O[C@@H]1[C@]34CCN(CC3CC3)[C@H](C2)[C@]4(O)CC[C@@]12C=N[C@H]([C@]1(O)CC[C@@]3(O)[C@H]4Cc5ccc(O)c6c5[C@@]3(CCN4CC3CC3)[C@H]1O6)O2")
"53.7 nM"

// next item, Ki requested
Query block: May I ask what Ki has been recorded for Oc1ccc2c3c1O[C@H]1[C@]4(CC[C@@]5(O)[C@@H](C2)N(CC2CC2)CC[C@]315)O[C@@H]1CO[C@H]2N1[C@@H]4O[C@]21CC[C@@]2(O)[C@H]3Cc4ccc(O)c5c4[C@@]2(CCN3CC2CC2)[C@H]1O5 ?
Result block: > 1000 nM

###

assay: Selectivity ratio of Ki for guinea pig kappa opioid receptor to mouse mu opioid receptor
QUANTITY_MEASURED: Ratio Ki
Quick one: just the number, no unit, thanks!

>>> recorded_measurement("Oc1ccc2c3c1O[C@@H]1[C@]34CCN(CC3CC3)[C@H](C2)[C@]4(O)CC[C@@]12C=N[C@H]([C@]1(O)CC[C@@]3(O)[C@H]4Cc5ccc(O)c6c5[C@@]3(CCN4CC3CC3)[C@H]1O6)O2")
0.61
>>> recorded_measurement("Oc1ccc2c3c1O[C@@H]1[C@]34CCN(CC3CC3)[C@H](C2)[C@]4(O)CC[C@@]12C=N[C@@H]([C@]1(O)CC[C@@]3(O)[C@H]4Cc5ccc(O)c6c5[C@@]3(CCN4CC3CC3)[C@H]1O6)O2")
1.61
>>> recorded_measurement("Oc1ccc2c3c1O[C@H]1[C@]4(CC[C@H]5[C@@H](C2)N(CC2CC2)CC[C@@]351)O[C@H]1CO[C@@H]2N1[C@H]4O[C@]21CC[C@H]2[C@H]3Cc4ccc(O)c5c4[C@@]2(CCN3CC2CC2)[C@H]1O5")
8.84

Consider now this further compound.
Query block: Quick one: Ratio Ki for Oc1ccc2c3c1O[C@H]1[C@]4(CC[C@@]5(O)[C@@H](C2)N(CC2CC2)CC[C@]315)O[C@@H]1CO[C@H]2N1[C@@H]4O[C@]21CC[C@@]2(O)[C@H]3Cc4ccc(O)c5c4[C@@]2(CCN3CC2CC2)[C@H]1O5 ?
Result block: 6.47
